Origin of values: patent US20230374151A1

biological target: T1, TnMUC1 peptide 1 (partially glycosylated), biotinylated; test: SPR (Biacore T200): biotinylated TnMUC1 peptide 1 (96-1) captured on CAP chip, scFv as analyte, 1:1 fit, average
T1 construct: also called 96-1; 32A
observation_type: pKd
// pKd is dimensionless: -log10 of concentration (M)

Task: Would you kindly share the measured pKd for humanised anti-TnMUC1 scFv protein 16P4 (82A), L0-H3 (scFv, Supernatant of construct 6D4 in the Octet assay; purified 16P4 elsewhere. scFv of CAR MB021; also called 6D4) scFv: DIVMTQSPDSLAVSLGERATINCKSSQSLLNSGDQKNYLTWYQQKPGQPPKLLIYWASTRESGVPDRFSGSGSGTDFTLTISSLQAEDVAVYYCQNDYSYPLTFGQGTKLEIKGGGGSGGGGSGGGGSGGGGSQVQLVQSGAEVKKPGSSVKVSCKASGYTFTDHAIHWVRQAPGQGLEWMGHFSPGNTDIKYNDKFKGRVTITADKSTSTAYMELSSLRSEDTAVYYCKTSTFFFDYWGQGTTVTVSSAAAHHHHHH ?
Result: 6.60

Task: Would you kindly share the measured pKd for humanised anti-TnMUC1 scFv protein 11P6 (89A), L0-H5 (scFv, Supernatant of construct 6D6 in the Octet assay; purified 11P6 elsewhere; also called 6D6) scFv: DIVMTQSPDSLAVSLGERATINCKSSQSLLNSGDQKNYLTWYQQKPGQPPKLLIYWASTRESGVPDRFSGSGSGTDFTLTISSLQAEDVAVYYCQNDYSYPLTFGQGTKLEIKGGGGSGGGGSGGGGSGGGGSQVQLVQSGAEVKKPGSSVKVSCKASGYTFTDHAIHWVRQAPGQGLEWIGHFSPGNTDIKYNDKFKGRATLTVDRSTSTAYMELSSLRSEDTAVYFCKTSTFFFDYWGQGTTVTVSSAAAHHHHHH ?
Result: 7.22

Task: Would you kindly share the measured pKd for humanised anti-TnMUC1 scFv protein 13P18 (19A), L2-H5 (scFv, Supernatant of construct 6D18 in the Octet assay; purified 13P18 elsewhere. scFv of CAR MB025; also called 6D18) scFv: DIVMTQSPDSLAVSLGERATINCKSSQSLLNSGDQKNYLTWYQQKPGQPPKLLIFWASTRESGVPDRFSGSGSGTDFTLTISSLQAEDVAVYYCQNDYSYPLTFGQGTKLEIKGGGGSGGGGSGGGGSGGGGSQVQLVQSGAEVKKPGSSVKVSCKASGYTFTDHAIHWVRQAPGQGLEWIGHFSPGNTDIKYNDKFKGRATLTVDRSTSTAYMELSSLRSEDTAVYFCKTSTFFFDYWGQGTTVTVSSAAAHHHHHH ?
Result: 7.29

Task: Would you kindly share the measured pKd for humanised anti-TnMUC1 scFv protein 13P16 (97A), L2-H3 (scFv, Supernatant of construct 6D16 in the Octet assay; purified 13P16 elsewhere. scFv of CAR MB024; also called 6D16) scFv: DIVMTQSPDSLAVSLGERATINCKSSQSLLNSGDQKNYLTWYQQKPGQPPKLLIFWASTRESGVPDRFSGSGSGTDFTLTISSLQAEDVAVYYCQNDYSYPLTFGQGTKLEIKGGGGSGGGGSGGGGSGGGGSQVQLVQSGAEVKKPGSSVKVSCKASGYTFTDHAIHWVRQAPGQGLEWMGHFSPGNTDIKYNDKFKGRVTITADKSTSTAYMELSSLRSEDTAVYYCKTSTFFFDYWGQGTTVTVSSAAAHHHHHH ?
Result: 6.64
